TESTED_TARGET: UniProt:Q16236
TEST_METHOD_NOTES: Activation of Nrf2 in human HepG2-ARE-C8 cells assessed as fold change at 0.1 uM measured after 12 hrs by luciferase reporter gene assay relative to control
Type: cell-based
# fold change (FC) per entry
Number only, no unit.

                               input_smiles  experimental_result
0     c1ccc(-c2nnc(-c3ccc4nc[nH]c4c3)o2)cc1                  1.7
1  O=[N+]([O-])c1ccc(-c2nnc(-c3ccc4nc[nH]c4c3)s2)cc1                  2.2
2     c1ccc(-c2nnc(-c3ccc4nc[nH]c4c3)s2)cc1                  1.7

Name the recorded fold change (FC) for N#Cc1ccc(-c2nnc(-c3ccc4nc[nH]c4c3)o2)cc1 . 1.4

Name the recorded fold change (FC) for Fc1ccc(-c2nnc(-c3ccc4nc[nH]c4c3)s2)cc1 . 1.6

Name the recorded fold change (FC) for c1ccc(-c2ccc(-c3nnc(-c4ccc5nc[nH]c5c4)o3)cc2)cc1 . 0.9

Name the recorded fold change (FC) for COc1cccc(-c2nnc(-c3ccc4nc[nH]c4c3)o2)c1 . 1.64

Name the recorded fold change (FC) for Cc1ccc(-c2nnc(-c3ccc4nc[nH]c4c3)o2)cc1 . 1.4

Name the recorded fold change (FC) for CCCCc1ccc(-c2nnc(-c3ccc4nc[nH]c4c3)s2)cc1 . 1.08

###

System: SH-SY5Y
TEST_METHOD_NOTES: Neuroprotective activity in human SH-SY5Y cells assessed as reduction in H2O2-induced cell damage at 10 to 20 uM preincubated for 6 hrs followed by H2O2 treatment and measured after 12 hrs by MTT assay
Type: functional, cell-based
Calls of active or inactive are those of the source. The rule behind the calls is not given here.
MEASUREMENT_NAME: Activity

>>> df
                               input_smiles  experimental_result
0    Fc1ccc(-c2nnc(-c3ccc4nc[nH]c4c3)s2)cc1               Active
1  O=[N+]([O-])c1ccc(-c2nnc(-c3ccc4nc[nH]c4c3)o2)cc1             inactive
2  O=[N+]([O-])c1ccc(-c2nnc(-c3ccc4nc[nH]c4c3)s2)cc1             inactive
3  CCCCc1ccc(-c2nnc(-c3ccc4nc[nH]c4c3)o2)cc1               Active

###

TESTED_TARGET: Nuclear factor erythroid 2-related factor 2 (Homo sapiens)
Sequence (whole entry): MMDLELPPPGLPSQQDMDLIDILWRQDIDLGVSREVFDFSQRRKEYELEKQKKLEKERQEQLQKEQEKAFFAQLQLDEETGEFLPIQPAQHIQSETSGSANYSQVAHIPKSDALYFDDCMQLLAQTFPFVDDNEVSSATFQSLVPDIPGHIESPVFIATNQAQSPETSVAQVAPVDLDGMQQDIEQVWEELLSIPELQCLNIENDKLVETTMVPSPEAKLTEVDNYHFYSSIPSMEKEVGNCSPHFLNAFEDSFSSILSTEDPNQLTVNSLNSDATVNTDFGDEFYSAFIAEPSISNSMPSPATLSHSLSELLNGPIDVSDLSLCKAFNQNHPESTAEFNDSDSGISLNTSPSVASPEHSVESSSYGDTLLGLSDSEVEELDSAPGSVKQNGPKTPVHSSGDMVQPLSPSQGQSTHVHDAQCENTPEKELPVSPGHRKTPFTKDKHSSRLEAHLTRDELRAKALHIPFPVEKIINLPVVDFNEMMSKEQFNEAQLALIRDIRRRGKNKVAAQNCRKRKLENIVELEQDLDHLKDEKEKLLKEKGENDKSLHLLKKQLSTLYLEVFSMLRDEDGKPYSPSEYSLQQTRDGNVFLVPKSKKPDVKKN
TEST_METHOD_NOTES: Activation of Nrf2 in human HepG2-ARE-C8 cells assessed as fold change at 20 uM measured after 12 hrs by luciferase reporter gene assay relative to control
Format: cell-based
MEASUREMENT_NAME: fold change (FC)
Number only, no unit.

For orientation, consider the following solved cases.
>>> print(df.to_string())
                               input_smiles  experimental_result
0  N#Cc1ccc(-c2nnc(-c3ccc4nc[nH]c4c3)o2)cc1                 2.35
1  CCCCc1ccc(-c2nnc(-c3ccc4nc[nH]c4c3)o2)cc1                 15.9
2   COc1cccc(-c2nnc(-c3ccc4nc[nH]c4c3)o2)c1                 1.83
3  c1ccc(-c2ccc(-c3nnc(-c4ccc5nc[nH]c5c4)o3)cc2)cc1                 3.15
4    Fc1cccc(-c2nnc(-c3ccc4nc[nH]c4c3)o2)c1                 1.65

Name the recorded fold change (FC) for O=[N+]([O-])c1ccc(-c2nnc(-c3ccc4nc[nH]c4c3)o2)cc1 . 12.2

Name the recorded fold change (FC) for c1ccc(-c2nnc(-c3ccc4nc[nH]c4c3)s2)cc1 . 8.18

Name the recorded fold change (FC) for O=[N+]([O-])c1ccc(-c2nnc(-c3ccc4nc[nH]c4c3)s2)cc1 . 17.4

###

TESTED_TARGET: Nuclear factor erythroid 2-related factor 2 (Homo sapiens) (UniProt Q16236)
TEST_METHOD_NOTES: Activation of Nrf2 in human HepG2-ARE-C8 cells assessed as fold change at 0.1 uM measured after 12 hrs by luciferase reporter gene assay relative to control
Format: cell-based
# fold change (FC) per entry

In [3]: df
Out[3]:
                               input_smiles  measurement_name  experimental_result
0    Fc1cccc(-c2nnc(-c3ccc4nc[nH]c4c3)o2)c1  fold change (FC)                 1.45
1    Fc1ccc(-c2nnc(-c3ccc4nc[nH]c4c3)o2)cc1  fold change (FC)                 1.58
2                      CC(C)(C)c1cc(O)ccc1O  fold change (FC)                 1.68
3  CCCCc1ccc(-c2nnc(-c3ccc4nc[nH]c4c3)o2)cc1  fold change (FC)                  1.8

Name the recorded fold change (FC) for O=[N+]([O-])c1ccc(-c2nnc(-c3ccc4nc[nH]c4c3)o2)cc1 . 1.5

Name the recorded fold change (FC) for Brc1ccc(-c2nnc(-c3ccc4nc[nH]c4c3)o2)cc1 . 2.05

###

# fold change (FC) per entry
TESTED_TARGET: Nuclear factor erythroid 2-related factor 2 (Homo sapiens) (UniProt Q16236)
TEST_METHOD_NOTES: Activation of Nrf2 in human HepG2-ARE-C8 cells assessed as fold change at 10 uM measured after 12 hrs by luciferase reporter gene assay relative to control
Type: cell-based
Number only, no unit.

For orientation, consider the following solved cases.
>>> df
                               input_smiles  experimental_result
0     c1ccc(-c2nnc(-c3ccc4nc[nH]c4c3)s2)cc1                 8.95
1  O=[N+]([O-])c1ccc(-c2nnc(-c3ccc4nc[nH]c4c3)s2)cc1                 19.4
2  CCCCc1ccc(-c2nnc(-c3ccc4nc[nH]c4c3)o2)cc1                 14.8
3    Fc1ccc(-c2nnc(-c3ccc4nc[nH]c4c3)o2)cc1                  2.6
4     c1ccc(-c2nnc(-c3ccc4nc[nH]c4c3)o2)cc1                  6.7
5  O=[N+]([O-])c1ccc(-c2nnc(-c3ccc4nc[nH]c4c3)o2)cc1                 7.68
6    Fc1cccc(-c2nnc(-c3ccc4nc[nH]c4c3)o2)c1                 1.35
7  c1ccc(-c2ccc(-c3nnc(-c4ccc5nc[nH]c5c4)o3)cc2)cc1                 1.58

Name the recorded fold change (FC) for COc1cccc(-c2nnc(-c3ccc4nc[nH]c4c3)o2)c1 . 1.72

Name the recorded fold change (FC) for Cc1ccc(-c2nnc(-c3ccc4nc[nH]c4c3)o2)cc1 . 3.25

Name the recorded fold change (FC) for CCCCc1ccc(-c2nnc(-c3ccc4nc[nH]c4c3)s2)cc1 . 2.3

###

TESTED_TARGET: Nuclear factor erythroid 2-related factor 2 (Homo sapiens) (UniProt Q16236)
TEST_METHOD_NOTES: Activation of Nrf2 in human HepG2-ARE-C8 cells assessed as fold change at 80 uM measured after 12 hrs by luciferase reporter gene assay relative to control
Assay type: cell-based
# fold change (FC) per entry
Number only, no unit.

For orientation, consider the following solved cases.
In [3]: df
Out[3]:
                               input_smiles  measurement_name  experimental_result
0    Cc1ccc(-c2nnc(-c3ccc4nc[nH]c4c3)o2)cc1  fold change (FC)                  6.6
1  CCCCc1ccc(-c2nnc(-c3ccc4nc[nH]c4c3)o2)cc1  fold change (FC)                 19.6

Can you look up fold change (FC) on Nuclear factor erythroid 2-related factor 2 (Homo sapiens) (UniProt Q16236) for c1ccc(-c2nnc(-c3ccc4nc[nH]c4c3)s2)cc1 ? 15.7

Source of measurements: ChEMBL document CHEMBL4602657
